Data credit: ChEMBL document CHEMBL1131993

Field: pIC50. Provide a value for each of the molecules that follow.
TARGET_OR_TEST_SYSTEM: Muscarinic acetylcholine receptor M1 (Homo sapiens)
EXPERIMENT_DESCRIPTION: The compound was tested for its binding affinity against M1 human recombinant muscarinic receptor in CHO cells.
Assay type: cell-based
Field pIC50 (float): negative decimal logarithm of the concentration in molar.

Query :: Return the recorded pIC50 value; entry: COc1ccc(COc2ccc(-c3cc(/C=C4\CN5CCC4CC5)on3)cc2)cc1
Result :: 6.09

Query :: Look up and state reported pIC50 for COc1ccc(COc2ccc(-c3cc(/C=C4/CN5CCC4CC5)on3)cc2)cc1
Result :: 6.60

Query :: Supply recorded pIC50 for COc1ccc(COc2ccc(-c3cc(/C=C4/CN5CCC4C5)on3)cc2OCc2ccc(OC)cc2)cc1 (stereo not drawn) here.
Result :: 5.91

---

TARGET_OR_TEST_SYSTEM: UniProt P11229
Sequence (whole entry): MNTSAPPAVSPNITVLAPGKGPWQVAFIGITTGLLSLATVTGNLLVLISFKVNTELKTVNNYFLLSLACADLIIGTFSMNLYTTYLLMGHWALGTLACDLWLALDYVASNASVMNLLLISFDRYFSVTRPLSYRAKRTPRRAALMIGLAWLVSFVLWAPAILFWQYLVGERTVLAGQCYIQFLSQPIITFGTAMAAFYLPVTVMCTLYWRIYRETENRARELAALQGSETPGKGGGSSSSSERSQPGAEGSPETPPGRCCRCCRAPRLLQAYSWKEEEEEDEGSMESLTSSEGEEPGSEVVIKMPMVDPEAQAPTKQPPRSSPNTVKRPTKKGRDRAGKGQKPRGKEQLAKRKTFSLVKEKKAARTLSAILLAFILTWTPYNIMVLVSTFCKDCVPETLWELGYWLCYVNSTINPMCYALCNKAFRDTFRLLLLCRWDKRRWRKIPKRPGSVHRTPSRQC
EXPERIMENT_DESCRIPTION: Ability to displace [3H]N-methylscopolamine binding to M1 human recombinant muscarinic receptor in CHO cells at concentration 1 uM
Format: cell-based
QUANTITY: inhibition (%)
Write the number in % without appending the unit.

Query :: Report inhibition under test system UniProt P11229 for Oc1ccc(-c2cc(/C=C3/CN4CCC3CC4)on2)cc1 .
Result :: 6

Query :: Print UniProt P11229 inhibition for Oc1ccc(-c2cc(/C=C3\CN4CCC3C4)on2)cc1O (configuration not stated) .
Result :: 0

Query :: Specify inhibition for N#Cc1ccc(-c2cc(/C=C3/CN4CCC3CC4)on2)cc1 , system UniProt P11229.
Result :: 11

Query :: Return reported inhibition for target or system UniProt P11229, item Oc1ccc(-c2cc(/C=C3\CN4CCC3CC4)on2)cc1O .
Result :: 0

Query :: Report the value of inhibition obtained on UniProt P11229 for COc1ccc(COc2ccc(-c3cc(/C=C4/CN5CCC4CC5)on3)cc2OCc2ccc(OC)cc2)cc1 .
Result :: 85

Query :: Name the value of inhibition reported for COc1ccc(COc2ccc(-c3cc(/C=C4\CN5CCC4C5)on3)cc2OCc2ccc(OC)cc2)cc1 (configuration not stated) when tested on UniProt P11229.
Result :: 87

Query :: Fill in: inhibition on UniProt P11229, entry COc1ccc(COc2ccc(-c3cc(/C=C4/CN5CCC4C5)on3)cc2)cc1 (configuration not stated)
Result :: 39

Query :: State recorded inhibition with UniProt P11229, entry Fc1ccc(-c2cc(/C=C3/CN4CCC3CC4)on2)cc1 , no comment.
Result :: 0

Query :: Write down measured inhibition (UniProt P11229) for this compound. COc1ccc(-c2cc(/C=C3\CN4CCC3C4)on2)cc1 (configuration not stated)
Result :: 0

Query :: Under UniProt P11229, report inhibition for CC(C)(C)OC(=O)Nc1ccc(-c2cc(/C=C3\CN4CCC3CC4)on2)cc1
Result :: 12

Query :: For UniProt P11229, give the measured inhibition of the entry CC(C)(C)OC(=O)Nc1ccc(-c2cc(/C=C3/CN4CCC3CC4)on2)cc1
Result :: 57

Query :: Provide measured inhibition on UniProt P11229 for N#Cc1ccc(-c2cc(/C=C3\CN4CCC3CC4)on2)cc1 please.
Result :: 2

Query :: Send back UniProt P11229 inhibition of Oc1ccc(-c2cc(/C=C3\CN4CCC3CC4)on2)cc1 only.
Result :: 0

Query :: Report its inhibition with UniProt P11229 as the test system: Nc1ccc(-c2cc(/C=C3\CN4CCC3CC4)on2)cc1
Result :: 0

Query :: # lookup: UniProt P11229 inhibition, key = Oc1ccc(-c2cc(/C=C3/CN4CCC3C4)on2)cc1O (configuration not stated)
Result :: 0

Query :: Tell me inhibition of Oc1ccc(-c2cc(/C=C3\CN4CCC3C4)on2)cc1 (configuration not stated) when tested on UniProt P11229.
Result :: 0

Query :: Please tell me the measured inhibition for Nc1ccc(-c2cc(/C=C3/CN4CCC3CC4)on2)cc1 ; system: UniProt P11229.
Result :: 33

Query :: Give measured inhibition for COc1ccc(COc2ccc(-c3cc(/C=C4\CN5CCC4C5)on3)cc2)cc1 (configuration not stated) (UniProt P11229).
Result :: 69

Query :: Give inhibition; test system UniProt P11229; compound Oc1ccc(-c2cc(/C=C3/CN4CCC3CC4)on2)cc1O
Result :: 13

Query :: // fetch inhibition for CC(C)(C)OC(=O)Nc1ccc(-c2cc(/C=C3\CN4CCC3C4)on2)cc1 (configuration not stated) ; system: UniProt P11229
Result :: 3

Query :: State, for UniProt P11229, measured inhibition of the compound listed here: Oc1ccc(-c2cc(/C=C3/CN4CCC3C4)on2)cc1 (configuration not stated)
Result :: 0

Query :: Identify measured inhibition obtained with UniProt P11229 for COc1ccc(-c2cc(/C=C3\CN4CCC3CC4)on2)cc1OC .
Result :: 3

Query :: Specify the recorded inhibition for C(=C1/CN2CCC1CC2)/c1cc(-c2ccccc2)no1 , system: UniProt P11229.
Result :: 0

Query :: Provide inhibition, system UniProt P11229, entry Nc1ccc(-c2cc(/C=C3/CN4CCC3C4)on2)cc1 (configuration not stated)
Result :: 7

Query :: Identify measured inhibition obtained with UniProt P11229 for COc1ccc(-c2cc(/C=C3\CN4CCC3CC4)on2)cc1 .
Result :: 0

Query :: Enter measured inhibition, system UniProt P11229, for the compound shown: COc1ccc(COc2ccc(-c3cc(/C=C4/CN5CCC4C5)on3)cc2OCc2ccc(OC)cc2)cc1 (configuration not stated)
Result :: 39

Query :: Please indicate recorded inhibition of COc1ccc(COc2ccc(-c3cc(/C=C4\CN5CCC4CC5)on3)cc2OCc2ccc(OC)cc2)cc1 measured with UniProt P11229.
Result :: 85

Query :: Enter inhibition (test system UniProt P11229) for COc1ccc(-c2cc(/C=C3/CN4CCC3CC4)on2)cc1OC
Result :: 28

Query :: State, for UniProt P11229, measured inhibition of the compound listed here: C(=C1\CN2CCC1CC2)/c1cc(-c2ccccc2)no1
Result :: 7

Query :: For UniProt P11229, give inhibition of the listed compound: Cc1ccc(-c2cc(/C=C3\CN4CCC3CC4)on2)cc1
Result :: 0

Query :: Provide UniProt P11229 inhibition reading for Fc1ccc(-c2cc(/C=C3\CN4CCC3CC4)on2)cc1 .
Result :: 0

Query :: Lab note: record inhibition of COc1ccc(COc2ccc(-c3cc(/C=C4/CN5CCC4CC5)on3)cc2)cc1 tested on UniProt P11229.
Result :: 89

Query :: Using UniProt P11229 as the test system, report measured inhibition of CC(C)(C)OC(=O)Nc1ccc(-c2cc(/C=C3/CN4CCC3C4)on2)cc1 (configuration not stated) .
Result :: 0

Query :: Please indicate recorded inhibition of COc1ccc(-c2cc(/C=C3/CN4CCC3C4)on2)cc1 (configuration not stated) measured with UniProt P11229.
Result :: 8

Query :: Report inhibition on UniProt P11229 for this entry: COc1ccc(COc2ccc(-c3cc(/C=C4\CN5CCC4CC5)on3)cc2)cc1
Result :: 77

Query :: For UniProt P11229, give inhibition of the listed compound: Cc1ccc(-c2cc(/C=C3/CN4CCC3CC4)on2)cc1
Result :: 7

Query :: Give measured inhibition for COc1ccc(-c2cc(/C=C3/CN4CCC3CC4)on2)cc1 (UniProt P11229).
Result :: 23
